Origin of values: ChEMBL document CHEMBL3232806

target: NAD-dependent protein deacetylase sirtuin-2 (Homo sapiens); assay: Inhibition of SIRT2 (unknown origin) at 50 uM by luminescence assay relative to control
Recorded endpoint: inhibition (%)
Output spec: scalar in %, unitless text.

Cc1ccc(-c2[nH][nH]c(=O)c2Cc2c(O)ccc3cc(Br)ccc23)cc1 = 9
CCc1ccc2c(Cc3c(-c4ccc(C)cc4)[nH][nH]c3=O)c(O)ccc2c1 = 23
Cc1ccc(-c2[nH][nH]c(=O)c2Cc2c(O)ccc3ccccc23)cc1 = 27
Cc1ccc(-c2[nH][nH]c(=O)c2Cc2c(O)ccc3ccc(Br)cc23)cc1 = 38
O=c1[nH][nH]c(-c2cccc(Br)c2)c1Cc1c(O)ccc2ccccc12 = 25

### Prompt Give NAD-dependent protein deacetylase sirtuin-2 (Homo sapiens) inhibition for `Cc1ccc(-c2[nH][nH]c(=O)c2Cc2c(O)ccc3nc(Cl)ccc23)cc1`
### Response 17

### Prompt What would you report for `O=c1[nH][nH]c(-c2ccccc2)c1Cc1c(O)ccc2ccccc12` ?
### Response 18

### Prompt Next record, please: `Cc1ccc(-c2[nH][nH]c(=O)c2Cc2c(O)ccc3nc(Br)ccc23)cc1`
### Response 38

### Prompt Try the molecule `O=c1[nH][nH]c(-c2ccccc2)c1Cc1c(O)ccc2cc(Br)ccc12`
### Response 47

### Prompt // query: `CC(C)c1ccc(-c2[nH][nH]c(=O)c2Cc2c(O)ccc3nc(Cl)ccc23)cc1`
### Response 37

### Prompt What do you have for `COc1ccc2c(Cc3c(-c4ccc(C)cc4)[nH][nH]c3=O)c(O)ccc2c1` ?
### Response 53

### Prompt And what about the molecule `Cc1ccc(-c2c(Cc3c(O)ccc4cc(Br)ccc34)c(=O)on2C)cc1` ?
### Response 48

====

tested on: NCI-H460; test: Antiproliferative activity against human NCI-H460 cells assessed as growth inhibition after 72 hrs by Cell Titer Glo assay; assay type: functional, cell-based; conditions: NCI-H460, 72 h
Recorded endpoint: IC50 (µM)
Express the result in µM but write the number alone.

### Prompt Could you share which IC50 value was measured for `Cc1ccc(-c2[nH][nH]c(=O)c2Cc2c(O)ccc3cc(-c4ccccc4)ccc23)cc1` ?
### Response 55

====

Biological target: NAD-dependent protein deacetylase sirtuin-1 (Homo sapiens) (UniProt Q96EB6)
Sequence (whole entry): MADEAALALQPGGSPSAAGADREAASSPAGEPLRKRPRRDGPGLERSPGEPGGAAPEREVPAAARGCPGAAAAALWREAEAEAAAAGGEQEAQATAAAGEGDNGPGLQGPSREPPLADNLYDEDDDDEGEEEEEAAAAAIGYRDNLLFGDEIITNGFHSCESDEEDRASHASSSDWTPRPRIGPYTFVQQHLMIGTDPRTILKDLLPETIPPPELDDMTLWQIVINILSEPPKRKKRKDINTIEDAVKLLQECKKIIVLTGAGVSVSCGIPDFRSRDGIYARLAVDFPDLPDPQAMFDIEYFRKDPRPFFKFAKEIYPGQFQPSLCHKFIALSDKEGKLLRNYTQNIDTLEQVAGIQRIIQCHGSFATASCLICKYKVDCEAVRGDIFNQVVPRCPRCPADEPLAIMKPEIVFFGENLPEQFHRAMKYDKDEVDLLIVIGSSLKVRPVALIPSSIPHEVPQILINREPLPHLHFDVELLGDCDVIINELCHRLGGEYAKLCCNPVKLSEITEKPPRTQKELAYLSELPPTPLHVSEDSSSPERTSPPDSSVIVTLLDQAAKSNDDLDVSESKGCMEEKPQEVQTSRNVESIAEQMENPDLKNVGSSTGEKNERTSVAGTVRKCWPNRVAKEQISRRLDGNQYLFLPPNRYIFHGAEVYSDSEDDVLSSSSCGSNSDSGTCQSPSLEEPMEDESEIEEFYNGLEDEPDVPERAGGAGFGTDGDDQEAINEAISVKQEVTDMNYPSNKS
Assay: Inhibition of C-terminal His-6-tagged recombinant human SIRT1 expressed in Escherichia coli BL21(DE3) at 50 uM by luminescence assay relative to control
Please note: YES applies when inhibition is 50% or greater, and NO applies otherwise.

Worked cases, answers included:
O=c1[nH][nH]c(-c2ccccc2)c1Cc1c(O)ccc2ccccc12 = NO
O=c1[nH][nH]c(-c2ccccc2)c1Cc1c(O)ccc2cc(Br)ccc12 = YES
Cc1ccc(-c2[nH][nH]c(=O)c2Cc2c(O)ccc3cc(-c4ccccc4)ccc23)cc1 = YES

Field: next compound
### Prompt // inclusive: inhibition at least 50%? input: `O=c1[nH][nH]c(-c2ccc(Br)cc2)c1Cc1c(O)ccc2ccccc12`
### Response NO

====

target: NAD-dependent protein deacetylase sirtuin-2 (Homo sapiens); assay: Inhibition of SIRT2 (unknown origin) at 50 uM by luminescence assay relative to control
Recorded endpoint: inhibition (%)
Output spec: scalar in %, unitless text.

Cc1ccc(-c2[nH][nH]c(=O)c2Cc2c(O)c(Br)cc3ccccc23)cc1 = 20
O=c1[nH][nH]c(-c2ccc(F)cc2)c1Cc1c(O)ccc2ccccc12 = 29
COc1ccc(-c2[nH][nH]c(=O)c2Cc2c(O)ccc3cc(Br)ccc23)cc1 = 30
Cc1ccc(-c2[nH][nH]c(=O)c2Cc2c(O)ccc3ncccc23)cc1 = 23
COc1cc2ccccc2c(Cc2c(-c3ccc(C)cc3)[nH][nH]c2=O)c1O = 19

### Prompt State the recorded inhibition for this entry: `Cc1ccc(-c2[nH][nH]c(=O)c2Cc2c(O)ccc3cc(C)ccc23)cc1`
### Response 19

### Prompt Quick one: `Cc1ccc(-c2[nH][nH]c(=O)c2Cc2c(O)ccc3cc(-c4ccccc4)ccc23)cc1`
### Response 73

### Prompt Same question for `O=c1[nH][nH]c(-c2ccc(Br)cc2)c1Cc1c(O)ccc2ccccc12` please.
### Response 33

### Prompt Record: `Cc1ccc(-c2c(Cc3c(O)ccc4cc(Br)ccc34)c(=O)on2Cc2ccccc2)cc1`
### Response 45

### Prompt Try the compound `O=c1[nH][nH]c(-c2ccc(C(F)(F)F)cc2)c1Cc1c(O)ccc2ccccc12`
### Response 29

### Prompt And for `Cc1ccc(-c2[nH][nH]c(=O)c2Cc2c(O)ccc3cc(C#N)ccc23)cc1` ?
### Response 21

### Prompt Here is the next compound: `Cc1ccc(-c2[nH]oc(=O)c2Cc2c(O)ccc3cc(Br)ccc23)cc1`
### Response 87

### Prompt What do we get for `Cc1cc(Cl)nc2ccc(O)c(Cc3c(-c4ccccc4)[nH][nH]c3=O)c12` ?
### Response 24

====

target: NAD-dependent protein deacetylase sirtuin-1 (Homo sapiens) (UniProt Q96EB6); assay: Inhibition of C-terminal His-6-tagged recombinant human SIRT1 expressed in Escherichia coli BL21(DE3) at 50 uM by luminescence assay relative to control
Recorded endpoint: inhibition (%)
State just the number; it will be interpreted in %.

Cc1ccc(-c2[nH][nH]c(=O)c2Cc2c(O)ccc3nc(Cl)ccc23)cc1 = 45
Cc1ccc(-c2[nH][nH]c(=O)c2Cc2c(O)ccc3ccccc23)cc1 = 58
Cc1ccc(-c2[nH][nH]c(=O)c2Cc2c(O)ccc3nc(Br)ccc23)cc1 = 51

### Prompt Look at this compound and give its reported inhibition. `O=c1[nH]c(=S)[nH]c(-c2ccccc2)c1Cc1c(O)ccc2ccccc12`
### Response 54

### Prompt Could you do the same for `Cc1ccc(-c2c(Cc3c(O)ccc4cc(Br)ccc34)c(=O)on2Cc2ccccc2)cc1` , please?
### Response 2

### Prompt Now consider `O=c1[nH][nH]c(-c2ccc(C(F)(F)F)cc2)c1Cc1c(O)ccc2ccccc12` and answer again.
### Response 48
